- Test Protocol: Clearance in Sprague-Dawley rat at 5 mg/kg, iv
- Type: ADME, organism-based
- Cond: in vivo
Endpoint: clearance (mL/min/kg)
Answers are plain numbers, in mL/min/kg.

Request: What does the record list as clearance for C=CC(=O)N[C@H](C)C(=O)N1CCN(c2ccc(Nc3ncc(Cl)c(Nc4ccccc4C(=O)NC)n3)cc2)CC1 ?
Result: 36.5

* * *

- Study Target: Insulin receptor (Homo sapiens) (UniProt P06213)
- Sequence (P06213 28-758 limits assumed): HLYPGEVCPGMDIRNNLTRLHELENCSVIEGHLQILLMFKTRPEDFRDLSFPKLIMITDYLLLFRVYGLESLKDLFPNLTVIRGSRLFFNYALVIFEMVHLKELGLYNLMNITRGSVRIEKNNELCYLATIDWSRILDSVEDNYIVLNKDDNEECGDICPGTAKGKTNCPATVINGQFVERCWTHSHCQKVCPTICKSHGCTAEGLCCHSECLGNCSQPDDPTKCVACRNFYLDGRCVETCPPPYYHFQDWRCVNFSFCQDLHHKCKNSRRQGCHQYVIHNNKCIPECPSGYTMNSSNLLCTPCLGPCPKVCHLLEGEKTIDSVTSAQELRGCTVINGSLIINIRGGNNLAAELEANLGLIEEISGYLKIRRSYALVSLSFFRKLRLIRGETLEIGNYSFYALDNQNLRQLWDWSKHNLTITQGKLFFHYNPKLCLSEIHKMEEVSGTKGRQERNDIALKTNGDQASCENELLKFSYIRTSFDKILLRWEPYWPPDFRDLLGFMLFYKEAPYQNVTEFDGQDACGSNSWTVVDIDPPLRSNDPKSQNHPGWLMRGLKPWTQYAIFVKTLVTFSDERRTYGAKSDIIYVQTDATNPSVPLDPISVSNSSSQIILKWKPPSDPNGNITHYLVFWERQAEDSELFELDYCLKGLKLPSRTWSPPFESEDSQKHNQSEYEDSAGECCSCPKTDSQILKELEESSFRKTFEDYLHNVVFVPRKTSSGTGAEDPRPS
- Sequence (P06213 763-1382 limits assumed): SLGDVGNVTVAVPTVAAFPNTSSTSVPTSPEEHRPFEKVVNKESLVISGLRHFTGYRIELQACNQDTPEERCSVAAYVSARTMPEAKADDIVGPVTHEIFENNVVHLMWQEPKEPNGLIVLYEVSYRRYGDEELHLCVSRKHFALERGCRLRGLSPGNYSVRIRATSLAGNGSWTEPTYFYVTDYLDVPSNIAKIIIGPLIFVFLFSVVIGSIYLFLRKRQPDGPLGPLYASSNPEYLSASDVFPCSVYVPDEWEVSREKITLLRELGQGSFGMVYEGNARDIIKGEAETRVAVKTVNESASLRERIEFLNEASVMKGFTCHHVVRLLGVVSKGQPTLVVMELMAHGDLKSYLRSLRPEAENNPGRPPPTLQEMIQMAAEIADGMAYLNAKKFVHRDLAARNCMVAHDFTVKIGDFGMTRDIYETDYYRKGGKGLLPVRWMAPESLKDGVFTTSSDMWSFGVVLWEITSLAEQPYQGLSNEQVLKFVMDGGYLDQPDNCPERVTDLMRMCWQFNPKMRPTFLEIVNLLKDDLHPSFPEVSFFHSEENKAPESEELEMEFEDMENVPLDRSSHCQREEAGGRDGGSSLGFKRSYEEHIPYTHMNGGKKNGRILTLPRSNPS
- Test Protocol: Inhibition of IR (unknown origin) assessed as residual activity at 1 uM relative to control
Please provide measured Activity for the entries that follow.
Answer with the number, then the unit.

Some molecules with recorded Activity:
{"columns": ["Molecule", "Observed"],
 "data": [
  ["C=CC(=O)NCC(=O)N1CCN(c2ccc(Nc3ncc(C(F)(F)F)c(Nc4ccccc4C(=O)NC)n3)cc2)CC1", "14%"],
  ["C=CC(=O)NCC(=O)N1CCN(c2ccc(Nc3ncc(Cl)c(Nc4ccccc4C(=O)NC)n3)cc2)CC1", "2%"],
  ["C=CC(=O)NC(C)C(=O)N1CCN(c2ccc(Nc3ncc(C(F)(F)F)c(Nc4ccccc4C(=O)NC)n3)cc2)CC1 (stereo not given)", "6%"],
  ["C=CC(=O)NCCC(=O)N1CCN(c2ccc(Nc3ncc(Cl)c(Nc4ccccc4C(=O)NC)n3)cc2)CC1", "5%"]
]}

Proceeding to the next molecule to report its Activity.
Request: Find the recorded Activity belonging to C=CC(=O)N[C@H](C)C(=O)N1CCN(c2ccc(Nc3ncc(Cl)c(Nc4ccccc4C(=O)NC)n3)cc2)CC1 and report it.
Result: 13%
